- system-tested: lymphokine-activated killer T-cell-originated protein kinase (TOPK) (Homo sapiens)
- Sequence (Q96KB5 whole entry): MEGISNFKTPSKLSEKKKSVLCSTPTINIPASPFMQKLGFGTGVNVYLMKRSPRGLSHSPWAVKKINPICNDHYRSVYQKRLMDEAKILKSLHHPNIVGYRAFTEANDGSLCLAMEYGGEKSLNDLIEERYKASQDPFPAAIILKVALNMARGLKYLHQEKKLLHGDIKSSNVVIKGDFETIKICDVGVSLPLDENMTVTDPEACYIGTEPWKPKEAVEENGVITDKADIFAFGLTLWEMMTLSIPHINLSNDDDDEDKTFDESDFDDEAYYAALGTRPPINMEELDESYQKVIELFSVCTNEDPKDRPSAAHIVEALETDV
- procedure-details: in vitro TOPK kinase assay
result-type: EC50 (µM)
Respond with the bare value in µM.

Name the recorded EC50 of "Cc1cc(O)c(-c2ccc([C@@H](C)CNc3ccc([N+](=O)[O-])c4nonc34)cc2)c2c1[nH]c(=O)c1sccc12" , assay system lymphokine-activated killer T-cell-originated protein kinase (TOPK) (Homo sapiens).
0.49
